Biological target: T1, HLA-A2 (human, UniProt P04439 25-302 at identity 0.94))
T1 chain: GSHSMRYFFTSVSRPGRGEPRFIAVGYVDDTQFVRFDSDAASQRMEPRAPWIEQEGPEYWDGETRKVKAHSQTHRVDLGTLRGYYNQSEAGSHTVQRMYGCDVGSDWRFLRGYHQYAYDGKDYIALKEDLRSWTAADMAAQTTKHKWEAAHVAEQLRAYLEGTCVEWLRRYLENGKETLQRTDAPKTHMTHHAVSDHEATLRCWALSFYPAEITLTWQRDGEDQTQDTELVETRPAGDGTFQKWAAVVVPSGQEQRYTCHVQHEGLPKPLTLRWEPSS
Experiment: competitive binding assay (flow cytometry)
Listed binders paired with reported IC50
The answer is to be given in µM; state only the numeric part.

Below, 3 binders whose answers are already recorded.
                     binder  recorded_measurement
0  LLYAVYRKL [FAPα^584-592]                  13.3
1  KILEENKEL [FAPα^486-494]                  33.8
2  YLASKEGMV [FAPα^560-568]                  15.3

Which IC50 value belongs to YLESDYSKL [FAPα^113-121] ?
8

Which IC50 value belongs to ALVCYGPGI [FAPα^463-471] ?
4.7

Which IC50 value belongs to GLFKCGIAV [FAPα^639-647] ?
5.6

Which IC50 value belongs to GLSPDRQFV [FAPα^104-112] ?
9.1
